Each recorded value in this set is attributed to the supplement of paper PMC10307832.

- Tested on: NCI-H1651
- Experiment: relative viability (nuclei count vs DMSO), 5 days (fraction); higher = more cells survive
- Measurement Setup: first compound 2.53 µM
Measure Name: relative viability
Give only the figure.

The reported value for O=c1cc(-c2cccc3c2Sc2ccccc2S3)oc(N2CCOCC2)c1 + CC(=O)Nc1cccc(-n2c(=O)n(C3CC3)c(=O)c3c(Nc4ccc(I)cc4F)n(C)c(=O)c(C)c32)c1 [Trametinib] (partner 0.02 µM) in terms of relative viability is 0.803

# relative viability (molecule: COc1nc(C)cnc1NS(=O)(=O)c1cccnc1-c1ccc(-c2nnco2)cc1 [Zibotentan] + CCNC(=O)c1noc(-c2cc(C(C)C)c(O)cc2O)c1-c1ccc(CN2CCOCC2)cc1 [Luminespib] (partner 0.01 µM) ) is 0.796

Notebook: COc1nc(C)cnc1NS(=O)(=O)c1cccnc1-c1ccc(-c2nnco2)cc1 [Zibotentan] + Cc1cc(Nc2cc(N3CCN(C)CC3)nc(Sc3ccc(NC(=O)C4CC4)cc3)n2)n[nH]1 [Tozasertib] (partner 0.1 µM) , relative viability read as 0.717

The measured relative viability associated with COc1nc(C)cnc1NS(=O)(=O)c1cccnc1-c1ccc(-c2nnco2)cc1 [Zibotentan] + CC(=O)Nc1cccc(-n2c(=O)n(C3CC3)c(=O)c3c(Nc4ccc(I)cc4F)n(C)c(=O)c(C)c32)c1 [Trametinib] (partner 0.02 µM) reads 0.803

----------
- Tested on: NCI-H2405
- Experiment: relative viability (nuclei count vs DMSO), 5 days (fraction); higher = more cells survive
- Measurement Setup: first compound 0.8 µM
Measure Name: relative viability
The response must contain the number and no unit.

Reported relative viability of O=c1cc(-c2cccc3c2Sc2ccccc2S3)oc(N2CCOCC2)c1 + CC(C)C[C@H](NC(=O)[C@H](Cc1ccccc1)NC(=O)c1cnccn1)B(O)O [Bortezomib] (partner 0.002 µM) : 0.996

The reported value for COc1nc(C)cnc1NS(=O)(=O)c1cccnc1-c1ccc(-c2nnco2)cc1 [Zibotentan] + N=C(N)NC(=N)NCCc1ccccc1 [Phenformin] (partner 250 µM) in terms of relative viability is 0.436

The recorded relative viability for O=c1cc(-c2cccc3c2Sc2ccccc2S3)oc(N2CCOCC2)c1 + CC(=O)Nc1cccc(-n2c(=O)n(C3CC3)c(=O)c3c(Nc4ccc(I)cc4F)n(C)c(=O)c(C)c32)c1 [Trametinib] (partner 0.02 µM) is 0.599

----------
- Tested on: LC-2-ad
- Experiment: relative viability (nuclei count vs DMSO), 5 days (fraction); higher = more cells survive
- Measurement Setup: first compound 2 µM
Give relative viability for every item shown.
Quick one: just the number, no unit, thanks!

In plain terms, COCC1(CO)C(=O)C2CCN1CC2 (stereo unspecified) [PRIMA-1MET] + Nc1ncn([C@H]2C[C@H](O)[C@@H](CO)O2)c(=O)n1 [Decitabine] (partner 2 µM) has a documented relative viability of 0.773

Briefly, relative viability measured for COCC1(CO)C(=O)C2CCN1CC2 (stereo unspecified) [PRIMA-1MET] + Cc1cc(Nc2cc(N3CCN(C)CC3)nc(Sc3ccc(NC(=O)C4CC4)cc3)n2)n[nH]1 [Tozasertib] (partner 0.1 µM) : 0.399

Reported relative viability of COCC1(CO)C(=O)C2CCN1CC2 (stereo unspecified) [PRIMA-1MET] + CC1(C)CCC(c2ccc(Cl)cc2)=C(CN2CCN(c3ccc(C(=O)NS(=O)(=O)c4ccc(N[C@H](CCN5CCOCC5)CSc5ccccc5)c(S(=O)(=O)C(F)(F)F)c4)cc3)CC2)C1 [Navitoclax] (partner 0.5 µM) : 0.511

Kindly note the recorded relative viability for COCC1(CO)C(=O)C2CCN1CC2 (stereo unspecified) [PRIMA-1MET] + Cc1nc(NC(=O)N2CCC[C@H]2C(N)=O)sc1-c1ccnc(C(C)(C)C(F)(F)F)c1 [Alpelisib] (partner 2 µM) , which is 1.01

The recorded relative viability for entry COCC1(CO)C(=O)C2CCN1CC2 (stereo unspecified) [PRIMA-1MET] + CCNC(=O)c1noc(-c2cc(C(C)C)c(O)cc2O)c1-c1ccc(CN2CCOCC2)cc1 [Luminespib] (partner 0.01 µM) equals 0.902

Memo: COCC1(CO)C(=O)C2CCN1CC2 (stereo unspecified) [PRIMA-1MET] + C[C@]1(O)C[C@@H](c2nc(-c3ccc4ccc(-c5ccccc5)nc4c3)c3c(N)nccn32)C1 [Linsitinib] (partner 1 µM) , reported relative viability: 0.754

The recorded relative viability for entry COCC1(CO)C(=O)C2CCN1CC2 (stereo unspecified) [PRIMA-1MET] + O=C(CCCCCCC(=O)Nc1ccccc1)NO [Vorinostat] (partner 1 µM) equals 0.679

Value of relative viability reported for the molecule COCC1(CO)C(=O)C2CCN1CC2 (stereo unspecified) [PRIMA-1MET] + Cc1nc(Nc2ncc(C(=O)Nc3c(C)cccc3Cl)s2)cc(N2CCN(CCO)CC2)n1 [Dasatinib] (partner 0.075 µM) is 0.472

Memo: COCC1(CO)C(=O)C2CCN1CC2 (stereo unspecified) [PRIMA-1MET] + CC(=O)Nc1cccc(-n2c(=O)n(C3CC3)c(=O)c3c(Nc4ccc(I)cc4F)n(C)c(=O)c(C)c32)c1 [Trametinib] (partner 0.02 µM) , reported relative viability: 0.924

Entry COCC1(CO)C(=O)C2CCN1CC2 (stereo unspecified) [PRIMA-1MET] + COc1cccc2cc(-c3nc([C@H]4CC[C@H](C(=O)O)CC4)n4ncnc(N)c34)[nH]c12 [OSI-027] (partner 0.5 µM) , relative viability reported as 0.729

Lookup result for COCC1(CO)C(=O)C2CCN1CC2 (stereo unspecified) [PRIMA-1MET] + NC(=O)Nc1cc(-c2cccc(F)c2)sc1C(=O)N[C@H]1CCCNC1 [AZD7762] (partner 0.2 µM) ; measured relative viability: 0.669

----------
So I've got a bunch of compounds here, and I need their relative viability values.
- Tested on: PC-3 [JPC-3]
- Experiment: relative viability (nuclei count vs DMSO), 5 days (fraction); higher = more cells survive
- Measurement Setup: first compound 0.3162 µM
// return a plain number; no unit text

CCN(CC)CCCCNc1ncc2cc(-c3cc(OC)cc(OC)c3)c(NC(=O)NC(C)(C)C)nc2n1 + NC(=O)Nc1cc(-c2cccc(F)c2)sc1C(=O)N[C@H]1CCCNC1 [AZD7762] (partner 0.2 µM) has a reported relative viability of 1.03

Per the records, this compound ( O=c1cc(N2CCOCC2)oc2c(-c3cccc4c3sc3ccccc34)cccc12 + CC(=O)c1c(C)c2cnc(Nc3ccc(N4CCNCC4)cn3)nc2n(C2CCCC2)c1=O [Palbociclib] (partner 0.5 µM) ) has relative viability equal to 0.557

In plain terms, CCN(CC)CCCCNc1ncc2cc(-c3cc(OC)cc(OC)c3)c(NC(=O)NC(C)(C)C)nc2n1 + Cc1cc(Nc2cc(N3CCN(C)CC3)nc(Sc3ccc(NC(=O)C4CC4)cc3)n2)n[nH]1 [Tozasertib] (partner 0.1 µM) has a documented relative viability of 0.892

Reported relative viability of O=c1cc(N2CCOCC2)oc2c(-c3cccc4c3sc3ccccc34)cccc12 + CCNC(=O)c1noc(-c2cc(C(C)C)c(O)cc2O)c1-c1ccc(CN2CCOCC2)cc1 [Luminespib] (partner 0.01 µM) : 0.695

Memo: CCN(CC)CCCCNc1ncc2cc(-c3cc(OC)cc(OC)c3)c(NC(=O)NC(C)(C)C)nc2n1 + CC(=O)c1c(C)c2cnc(Nc3ccc(N4CCNCC4)cn3)nc2n(C2CCCC2)c1=O [Palbociclib] (partner 0.5 µM) , reported relative viability: 0.539

----------
- Tested on: EMC-BAC-2
- Experiment: relative viability (nuclei count vs DMSO), 5 days (fraction); higher = more cells survive
- Measurement Setup: first compound 0.03162 µM
Measure Name: relative viability
Please respond with just the number, no unit label.

Entry under test: CCN(CC)CCCCNc1ncc2cc(-c3cc(OC)cc(OC)c3)c(NC(=O)NC(C)(C)C)nc2n1 + Cc1nc(Nc2ncc(C(=O)Nc3c(C)cccc3Cl)s2)cc(N2CCN(CCO)CC2)n1 [Dasatinib] (partner 0.075 µM) . Its relative viability was 0.359

relative viability reading for CCN(CC)CCCCNc1ncc2cc(-c3cc(OC)cc(OC)c3)c(NC(=O)NC(C)(C)C)nc2n1 + Cc1cc(Nc2cc(N3CCN(C)CC3)nc(Sc3ccc(NC(=O)C4CC4)cc3)n2)n[nH]1 [Tozasertib] (partner 0.1 µM) : 0.292

Short answer for O=c1cc(N2CCOCC2)oc2c(-c3cccc4c3sc3ccccc34)cccc12 + NC(=O)Nc1cc(-c2cccc(F)c2)sc1C(=O)N[C@H]1CCCNC1 [AZD7762] (partner 0.2 µM) : relative viability was 1.17

----------
- Tested on: COR-L 105
- Experiment: relative viability (nuclei count vs DMSO), 5 days (fraction); higher = more cells survive
- Measurement Setup: first compound 8 µM
Measure Name: relative viability

Reported relative viability for O=c1cc(-c2cccc3c2Sc2ccccc2S3)oc(N2CCOCC2)c1 + CC1(C)CCC(c2ccc(Cl)cc2)=C(CN2CCN(c3ccc(C(=O)NS(=O)(=O)c4ccc(N[C@H](CCN5CCOCC5)CSc5ccccc5)c(S(=O)(=O)C(F)(F)F)c4)cc3)CC2)C1 [Navitoclax] (partner 0.5 µM) was 0.993

The reported value for O=c1cc(-c2cccc3c2Sc2ccccc2S3)oc(N2CCOCC2)c1 + CCNC(=O)c1noc(-c2cc(C(C)C)c(O)cc2O)c1-c1ccc(CN2CCOCC2)cc1 [Luminespib] (partner 0.01 µM) in terms of relative viability is 1.02

Value of measured relative viability for the entry O=c1cc(-c2cccc3c2Sc2ccccc2S3)oc(N2CCOCC2)c1 + Cc1cc(Nc2cc(N3CCN(C)CC3)nc(Sc3ccc(NC(=O)C4CC4)cc3)n2)n[nH]1 [Tozasertib] (partner 0.1 µM) : 0.414

Record summary for O=c1cc(-c2cccc3c2Sc2ccccc2S3)oc(N2CCOCC2)c1 + CC(C)C[C@H](NC(=O)[C@H](Cc1ccccc1)NC(=O)c1cnccn1)B(O)O [Bortezomib] (partner 0.002 µM) : reported relative viability = 0.733

Record summary for O=c1cc(-c2cccc3c2Sc2ccccc2S3)oc(N2CCOCC2)c1 + COc1cccc2cc(-c3nc([C@H]4CC[C@H](C(=O)O)CC4)n4ncnc(N)c34)[nH]c12 [OSI-027] (partner 0.5 µM) : reported relative viability = 0.734
